Some compounds, each annotated with its measured composite z-score.
System: glycogen synthase kinase-3 (GSK3A per assay name; protocol says GSK3B)
Experiment: GSK3 binders on small-molecule microarrays, primary screen, biochemical, small-molecule microarray, 635 nm fluorescence, GSK3A (AID 1103); further: the record names both GSK3A and GSK3B
Details: small-molecule microarray binding, fluorescence 635 nm; higher = more signal
Form rule: numeric answer, no unit written next to it.

Some solved cases for reference:
COMPOUND	VALUE MEASURED
C=C(COC)/C(=C/C[C@H](OC(=O)c1ccncc1)c1ccc(OCCO)cc1)c1cnc2ccccc2c1	1.07
CN(C)CCCC[C@@H]1NC(=O)[C@H]2C[C@@H](C(=O)NCCCCCNC(=O)CS)[C@@H](c3cccc(OCCO)c3)N2C1=O	0.894
C=C[C@H](COC(C)=O)N(C(=O)OC(C)(C)C)S(=O)(=O)c1ccc(Br)cc1	0.484
COCCOC(=O)N1C(=O)[C@@]2(c3cc(C#Cc4ccc(OC)cc4)ccc31)[C@H](C(=O)N1CCCCCCC1)[C@H]1C(=O)O[C@H](c3ccccc3)[C@H](c3ccccc3)N1[C@@H]2c1ccc(OCCO)cc1	1.33
O=C1OCCC/C=C\[C@H]2OC34C=CCN(Cn5nnc6ccccc65)C(=O)[C@H]3N(CCO)C(=O)[C@@H]4C12 (some centres undefined)	-0.963

Data request: // lookup composite z-score for CCOC(=O)C[C@H]1[C@H](OC(=O)c2ccc(C(=O)c3ccccc3)cc2)[C@@H](NC(=O)c2ccc(-c3ccccc3)cc2)c2cc(OCCCO)ccc2N1C(=O)c1ccccc1
Data returned: 0.477

Data request: // lookup composite z-score for CC(=O)NCCCC[C@@H]1NC(=O)[C@@H]2C[C@H](C(=O)NCCCCCCNC(=O)CS)[C@H](c3cccc(OCCO)c3)N2C1=O
Data returned: 1.12

Data request: // lookup composite z-score for COc1ccc([Si](C)(C)[C@H]2[C@H](CCO)O[C@@]3(C(=O)N(Cc4ccc(N5C(=O)COc6ccccc65)cc4)c4ccccc43)[C@@H]2C)cc1
Data returned: -1.01

Data request: // lookup composite z-score for C=CCOC(=O)[C@H]1[C@@H]2C(=O)O[C@@H](c3ccccc3)[C@@H](c3ccccc3)N2[C@@H](c2ccc(OCCOC(=O)[C@@H]3C[C@@H]4C(=O)N[C@@H](CCCCN(C)C)C(=O)N4[C@@H]3c3ccc(O)cc3)cc2)[C@]12C(=O)Nc1ccc(I)cc12
Data returned: 1.32

Data request: // lookup composite z-score for CC(C)C(=C=CC[C@@H](O)c1ccccc1OCCO)CCO
Data returned: 0.0661

Data request: // lookup composite z-score for [N-]=[N+]=Nc1ccccc1C[C@@]1(C(=O)NCCN2CCOCC2)N=C(c2ccc(OCCCO)cc2)O[C@@H]1c1ccccc1
Data returned: 1.29

Data request: // lookup composite z-score for COc1ccc([Si](C)(C)[C@@H]2[C@@H](CCO)O[C@]3(C(=O)N(Cc4ccc(N5C(=O)COc6ccccc65)cc4)c4ccccc43)[C@H]2C)cc1
Data returned: 0.522

Data request: // lookup composite z-score for C#CCNC(=O)[C@H](Cc1ccccc1)NC(=O)CCC(=O)O
Data returned: -1.14

Data request: // lookup composite z-score for COc1ccc([Si](C)(C)[C@H]2[C@H](CCO)O[C@@]3(C(=O)N(C)c4c(Br)cc(C)cc43)[C@@H]2C)cc1
Data returned: 0.223
